# Tested on: Saccharomyces cerevisiae;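 also: PSI is a weighted mean of sequencing reads over stability bins, variants kept only with over 10 reads, mCherry proximal and sfGFP distal, peptide attached via GGGS linker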
# assay name: protein stability index of tFT-peptide fusion (C-terminal peptide) (PSI (0-1 scale)); higher = more stable (slower turnover)
# condition context: genetic background: wild type; temperature: 37 C
Decide by protein stability index: equal to or exceeding 0.5 means true (1), less means false (0).

>>> df
    sequence_text  assigned_class
 0   WVLSRAAFVFFF        true (1)
 1   YVSLPFVVWWFC       false (0)
 2   SRLMLPLSPLVC       false (0)
 3   TEHIIAFKASVN       false (0)
 4   FYLSSCFLFLRF       false (0)
 5   SRVCVLTGISCA        true (1)
 6   SFFSQAIPILAA       false (0)
 7   DKVTLLRRCKQY       false (0)
 8   SSLAKFQLISTY       false (0)
 9   VFAWSLYLRWAW       false (0)
10   MALAVRVVLCGA       false (0)
11   KTDVYPVSFFTC       false (0)
12   RYLHFASLLFAS        true (1)
13   FCSLLVLLFFGV       false (0)
14   VVFVRLGWMRAC       false (0)
15   IACISCLLCVVV        true (1)

src = the supplement of paper PMC10724198
